- PROTOCOL CONDITIONS: in acetone, 323.15 K
MEASUREMENT LABEL: solubility (mole fraction)

IN: Identify measured solubility (mole fraction) associated with CC(=O)OC(OC(C)=O)c1ccc([N+](=O)[O-])o1
OUT: 0.379

###

- PROTOCOL CONDITIONS: in toluene, 323.15 K
MEASUREMENT LABEL: solubility (mole fraction)
Enter a number only.

IN: Identify measured solubility (mole fraction) associated with CC(=O)OC(OC(C)=O)c1ccc([N+](=O)[O-])o1
OUT: 0.373

###

- PROTOCOL CONDITIONS: in ethyl acetate, 283.15 K
MEASUREMENT LABEL: solubility (mole fraction)
Enter a number only.

IN: Identify measured solubility (mole fraction) associated with CC(=O)OC(OC(C)=O)c1ccc([N+](=O)[O-])o1
OUT: 0.0031

###

- PROTOCOL CONDITIONS: in methanol, 278.15 K
MEASUREMENT LABEL: solubility (mole fraction)
Enter a number only.

IN: Identify measured solubility (mole fraction) associated with CC(=O)OC(OC(C)=O)c1ccc([N+](=O)[O-])o1
OUT: 0.0778

###

- PROTOCOL CONDITIONS: in toluene, 298.15 K
MEASUREMENT LABEL: solubility (mole fraction)

IN: Identify measured solubility (mole fraction) associated with CC(=O)OC(OC(C)=O)c1ccc([N+](=O)[O-])o1
OUT: 0.211

###

- PROTOCOL CONDITIONS: in n-propanol, 308.15 K
MEASUREMENT LABEL: solubility (mole fraction)
Enter a number only.

IN: Identify measured solubility (mole fraction) associated with CC(=O)OC(OC(C)=O)c1ccc([N+](=O)[O-])o1
OUT: 0.0761

###

- PROTOCOL CONDITIONS: in acetone, 278.15 K
MEASUREMENT LABEL: solubility (mole fraction)
Enter a number only.

IN: Identify measured solubility (mole fraction) associated with CC(=O)OC(OC(C)=O)c1ccc([N+](=O)[O-])o1
OUT: 0.0864

###

- PROTOCOL CONDITIONS: in THF, 318.15 K
MEASUREMENT LABEL: solubility (mole fraction)
Enter a number only.

IN: Identify measured solubility (mole fraction) associated with CC(=O)OC(OC(C)=O)c1ccc([N+](=O)[O-])o1
OUT: 0.434

###

- PROTOCOL CONDITIONS: in acetonitrile, 308.15 K
MEASUREMENT LABEL: solubility (mole fraction)
Enter a number only.

IN: Identify measured solubility (mole fraction) associated with CC(=O)OC(OC(C)=O)c1ccc([N+](=O)[O-])o1
OUT: 0.0093

###

- PROTOCOL CONDITIONS: in methanol, 313.15 K
MEASUREMENT LABEL: solubility (mole fraction)
Enter a number only.

IN: Identify measured solubility (mole fraction) associated with CC(=O)OC(OC(C)=O)c1ccc([N+](=O)[O-])o1
OUT: 0.143

###

- PROTOCOL CONDITIONS: in acetonitrile, 303.15 K
MEASUREMENT LABEL: solubility (mole fraction)
Enter a number only.

IN: Identify measured solubility (mole fraction) associated with CC(=O)OC(OC(C)=O)c1ccc([N+](=O)[O-])o1
OUT: 0.0069

###

- PROTOCOL CONDITIONS: in methanol, 288.15 K
MEASUREMENT LABEL: solubility (mole fraction)
Enter a number only.

IN: Identify measured solubility (mole fraction) associated with CC(=O)OC(OC(C)=O)c1ccc([N+](=O)[O-])o1
OUT: 0.0898
